Reported % inhibition values for a set of binders
Biological target: T1, recombinant human VEGF165 (human, UniProt P15692-4 27-191)
T1 construct: also called hVEGF165; rhVEGF165
T1 sequence (P15692 other isoform, or with tags, fused parts or gaps limits assumed): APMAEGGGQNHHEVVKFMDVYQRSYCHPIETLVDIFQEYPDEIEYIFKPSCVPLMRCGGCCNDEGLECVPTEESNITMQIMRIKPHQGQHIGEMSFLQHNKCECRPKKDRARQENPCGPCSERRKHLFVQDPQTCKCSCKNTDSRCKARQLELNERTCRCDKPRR
Test: VEGF/VEGFR1 competition AlphaScreen
Procedure: Finally, streptavidin donor beads (20 μg/ml) are added and after 1 hour of incubation in the dark, fluorescence is measured on the Envision microplate reader.

binder	% inhibition / %
VEGFBII025 (VHH, biparatopic bivalent VHH in one chain; also called VEGFBII10E07-40GS-23B04) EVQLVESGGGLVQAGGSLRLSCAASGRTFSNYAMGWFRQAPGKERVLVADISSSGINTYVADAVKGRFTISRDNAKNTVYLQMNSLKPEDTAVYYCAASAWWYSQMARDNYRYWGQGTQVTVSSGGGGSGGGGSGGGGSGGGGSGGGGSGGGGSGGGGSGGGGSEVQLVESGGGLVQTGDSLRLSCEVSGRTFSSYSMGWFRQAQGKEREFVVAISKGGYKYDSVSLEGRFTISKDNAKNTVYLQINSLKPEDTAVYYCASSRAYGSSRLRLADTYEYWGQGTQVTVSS	82
VEGFBII024 (VHH, biparatopic bivalent VHH in one chain; also called VEGFBII23B04-40GS-86H09; VEGFBI024) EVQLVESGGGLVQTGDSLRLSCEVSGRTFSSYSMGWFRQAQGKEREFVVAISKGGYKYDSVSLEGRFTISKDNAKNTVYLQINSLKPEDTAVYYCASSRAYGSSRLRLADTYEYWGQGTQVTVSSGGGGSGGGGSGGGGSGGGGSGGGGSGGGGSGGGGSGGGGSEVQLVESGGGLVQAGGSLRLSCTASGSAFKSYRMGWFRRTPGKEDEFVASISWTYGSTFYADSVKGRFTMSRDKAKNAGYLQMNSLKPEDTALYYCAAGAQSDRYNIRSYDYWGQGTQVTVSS	100
VEGFBII022 (VHH, biparatopic bivalent VHH in one chain; also called VEGFBII23B04-9GS-5B05) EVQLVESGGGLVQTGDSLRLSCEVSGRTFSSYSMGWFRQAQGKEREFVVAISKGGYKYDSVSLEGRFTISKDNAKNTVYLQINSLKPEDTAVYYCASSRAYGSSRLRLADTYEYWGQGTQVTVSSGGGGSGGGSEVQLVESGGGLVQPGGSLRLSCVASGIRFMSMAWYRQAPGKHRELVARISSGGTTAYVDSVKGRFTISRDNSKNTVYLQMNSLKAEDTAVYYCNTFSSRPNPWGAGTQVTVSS	100
